Hello, the source for this data is paper PMC7866972, in case you need it.

# Test system: Notch
# test description: Notch luciferase reporter assay (PMA induced)
# Type: cell-based
# reported conditions: Homo sapiens; HeLa cells; 30 µM; compared to pTK as control; 6 h; read-out: percentage of luciferase induction Notch/PMA
Tick condition met if activity at 30 µM is 200% or greater. Tick condition not met if activity at 30 µM is less than 200%.

Field: example entries. Status: answers known.
molecule: O=C1c2cccc(O)c2C(=O)c2c(O)cc(CO)cc21 [Compound 14, aloe-emodin, reference compound]
group label: condition not met
//
molecule: Cc1cc(O)c2c(c1)C(=O)c1cc(O)cc(O)c1C2=O
group label: condition met
//
molecule: O=C1c2cccc(O)c2C(=O)c2c(O)cccc21 [Compound 12, danthron, reference compound]
group label: condition not met

Can O=C1c2ccccc2C(=O)c2c1ccc(O)c2O be said to have activity at 30 µM at or above 200%?
condition not met

###

# Test system: Myc
# test description: Myc luciferase reporter assay (PMA induced)
# Type: cell-based
# reported conditions: Homo sapiens; HeLa cells; 30 µM; compared to pTK as control; 4 h; read-out: percentage of luciferase induction Myc/PMA
# Description: Hela cells from ATCC were plated in white opaque 384 well plates at a density of 4300 cells/well in 30 µL of a growth medium (DMEM with 10% FBS and 1% Pen/step). The next day, the medium was aspirated and replaced with DMEM containing 10% FBS. […] The light output was detected in a Glomax Multi+ detection system with the Instinct Software (Promega, Madison, WI, USA). […] In the case of FoxO and mi-R21, the enhanced luciferase activity by the test agent was assessed.
experimental readout: activity at 30 µM (%)
Answer with a number only, understood to be in %.

compound: O=C1c2ccccc2C(=O)c2c(O)c(O)cc(O)c21
activity at 30 µM, %: 61
//
compound: O=C1c2cccc(O)c2C(=O)c2c(O)cc(CO)cc21 [Compound 14, aloe-emodin, reference compound]
activity at 30 µM, %: 95
//
compound: Cc1cc(O)c2c(c1)C(=O)c1cc(O)cc(O)c1C2=O
activity at 30 µM, %: 46
//
compound: O=C1c2cccc(O)c2C(=O)c2c(O)cccc21 [Compound 12, danthron, reference compound]
activity at 30 µM, %: 115
//
compound: Cc1cc(O)c2c(c1)C(=O)c1cccc(O)c1C2=O [Compound 11, chrysophanol, reference compound]
activity at 30 µM, %: 144
//
compound: O=C1c2ccccc2C(=O)c2c1ccc(O)c2O
activity at 30 µM, %: 61

With those in mind, consider the next compound.
Find the measured activity at 30 µM of O=C1c2ccccc2C(=O)c2c(O)ccc(O)c21 [Compound 13, quinizarin, reference compound] and report it.
81

###

# Tested on: Ap-1
# test description: AP-1 luciferase reporter assay (PMA induced)
# Assay type: cell-based
# reported conditions: HeLa cells; 30 µM; compared to pTK as control; 4 h; read-out: percentage of luciferase induction Ap-1/PMA
Property: activity at 30 µM; scope: individual molecules
Answer with a number only, understood to be in %.

Example entries begin here.
molecule: O=C1c2ccccc2C(=O)c2c(O)ccc(O)c21 [Compound 13, quinizarin, reference compound]
experimental readout: activity at 30 µM
value reported: 107

molecule: O=C1c2ccccc2C(=O)c2c(O)c(O)cc(O)c21 [Compound 2, purpurin]
experimental readout: activity at 30 µM
value reported: 73

molecule: O=C1c2ccccc2C(=O)c2c1ccc(O)c2O [Compound 1, alizarin]
experimental readout: activity at 30 µM
value reported: 87

molecule: O=C1c2cccc(O)c2C(=O)c2c(O)cccc21 [Compound 12, danthron, reference compound]
experimental readout: activity at 30 µM
value reported: 122

molecule: Cc1cc(O)c2c(c1)C(=O)c1cccc(O)c1C2=O [Compound 11, chrysophanol, reference compound]
experimental readout: activity at 30 µM
value reported: 115

Provide the reported activity at 30 µM (system: Ap-1) for Cc1cc(O)c2c(c1)C(=O)c1cc(O)cc(O)c1C2=O [Compound 3, emodin]
45

Provide the reported activity at 30 µM (system: Ap-1) for O=C1c2cccc(O)c2C(=O)c2c(O)cc(CO)cc21 [Compound 14, aloe-emodin, reference compound]
138

###

# Tested on: miR-21
# test description: miR-21 luciferase reporter assay (no inducer)
# Format: cell-based
# reported conditions: Homo sapiens, HeLa cells, 30 µM, 6 h, read-out: percentage of luciferase induction mi-R21/No Induction
experimental readout: activity at 30 µM (%)
Answer with a number only, understood to be in %.

Example entries begin here.
molecule: O=C1c2ccccc2C(=O)c2c(O)ccc(O)c21 [Compound 13, quinizarin, reference compound]
activity at 30 µM / %: 171
//
molecule: O=C1c2cccc(O)c2C(=O)c2c(O)cc(CO)cc21 [Compound 14, aloe-emodin, reference compound]
activity at 30 µM / %: 167
//
molecule: O=C1c2ccccc2C(=O)c2c1ccc(O)c2O
activity at 30 µM / %: 141
//
molecule: O=C1c2ccccc2C(=O)c2c(O)c(O)cc(O)c21
activity at 30 µM / %: 259
//
molecule: O=C1c2cccc(O)c2C(=O)c2c(O)cccc21 [Compound 12, danthron, reference compound]
activity at 30 µM / %: 156
//
molecule: Cc1cc(O)c2c(c1)C(=O)c1cc(O)cc(O)c1C2=O
activity at 30 µM / %: 309

With those in mind, consider the next molecule.
Find the measured activity at 30 µM of Cc1cc(O)c2c(c1)C(=O)c1cccc(O)c1C2=O [Compound 11, chrysophanol, reference compound] and report it.
280

###

# Test system: E2F
# test description: E2F luciferase reporter assay (PMA induced)
# Format: cell-based
# reported conditions: Homo sapiens; HeLa cells; 30 µM; compared to pTK as control; 4 h; read-out: percentage of luciferase induction E2F/PMA
experimental readout: activity at 30 µM
Form entry: enter the amount, then its unit.

Example entries begin here.
molecule: O=C1c2ccccc2C(=O)c2c(O)c(O)cc(O)c21
study system: E2F
activity at 30 µM: 190%
//
molecule: Cc1cc(O)c2c(c1)C(=O)c1cccc(O)c1C2=O [Compound 11, chrysophanol, reference compound]
study system: E2F
activity at 30 µM: 251%
//
molecule: O=C1c2ccccc2C(=O)c2c1ccc(O)c2O
study system: E2F
activity at 30 µM: 172%
//
molecule: O=C1c2cccc(O)c2C(=O)c2c(O)cc(CO)cc21 [Compound 14, aloe-emodin, reference compound]
study system: E2F
activity at 30 µM: 178%
//
molecule: O=C1c2cccc(O)c2C(=O)c2c(O)cccc21 [Compound 12, danthron, reference compound]
study system: E2F
activity at 30 µM: 328%
//
molecule: O=C1c2ccccc2C(=O)c2c(O)ccc(O)c21 [Compound 13, quinizarin, reference compound]
study system: E2F
activity at 30 µM: 282%

Find the measured activity at 30 µM of Cc1cc(O)c2c(c1)C(=O)c1cc(O)cc(O)c1C2=O and report it.
144%

###

# System: Notch
# test description: Notch luciferase reporter assay (PMA induced)
# Format: cell-based
# reported conditions: Homo sapiens; HeLa cells; 30 µM; compared to pTK as control; 6 h; read-out: percentage of luciferase induction Notch/PMA
Property: activity at 30 µM; scope: individual molecules
Answer with a number only, understood to be in %.

Provide the reported activity at 30 µM (system: Notch) for Cc1cc(O)c2c(c1)C(=O)c1cccc(O)c1C2=O [Compound 11, chrysophanol, reference compound]
195

Provide the reported activity at 30 µM (system: Notch) for O=C1c2ccccc2C(=O)c2c(O)ccc(O)c21 [Compound 13, quinizarin, reference compound]
198

Provide the reported activity at 30 µM (system: Notch) for O=C1c2ccccc2C(=O)c2c(O)c(O)cc(O)c21 [Compound 2, purpurin]
194
